Assay: total protein half-life in vivo (active degradation + dilution); higher = more stable protein
Conditions: wild type E. coli NCM3722; growth: C-lim chemostat; doubling time 6 h
# total protein half-life in vivo per entry

See these solved cases before continuing.
1. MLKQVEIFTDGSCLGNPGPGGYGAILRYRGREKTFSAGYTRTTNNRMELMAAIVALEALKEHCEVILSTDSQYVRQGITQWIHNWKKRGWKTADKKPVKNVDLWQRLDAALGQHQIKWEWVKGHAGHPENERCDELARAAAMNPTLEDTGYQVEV [P0A7Y4]
5.92 h
2. MKVAKDLVVSLAYQVRTEDGVLVDESPVSAPLDYLHGHGSLISGLETALEGHEVGDKFDVAVGANDAYGQYDENLVQRVPKDVFMGVDELQVGMRFLAETDQGPVPVEITAVEDDHVVVDGNHMLAGQNLKFNVEVVAIREATEEELAHGHVHGAHDHHHDHDHDGCCGGHGHDHGHEHGGEGCCGGKGNGGCGCH [P0A9K9]
4.63 h
3. MTLQQQIIKALGAKPQINAEEEIRRSVDFLKSYLQTYPFIKSLVLGISGGQDSTLAGKLCQMAINELRLETGNESLQFIAVRLPYGVQADEQDCQDAIAFIQPDRVLTVNIKGAVLASEQALREAGIELSDFVRGNEKARERMKAQYSIAGMTSGVVVGTDHAAEAITGFFTKYGDGGTDINPLYRLNKRQGKQLLAALACPEHLYKKAPTADLEDDRPSLPDEVALGVTYDNIDDYLEGKNVPQQVARTIENWYLKTEHKRRPPITVFDDFWKK
6.28 h
4. MRTVKVFEEAWPLHTPFVIARGSRSEARVVVVELEEEGIKGTGECTPYPRYGESDASVMAQIMSVVPQLEKGLTREELQKILPAGAARNALDCALWDLAARRQQQSLADLIGITLPETVITAQTVVIGTPDQMANSASTLWQAGAKLLKVKLDNHLISERMVAIRTAVPDATLIVDANESWRAEGLAARCQLLADLGVAMLEQPLPAQDDAALENFIHPLPICADESCHTRSNLKALKGRYEMVNIKLDKTGGLTEALALATEARAQGFSLMLGCMLCTSRAISAALPLVPQVSFADLDGPTWLAVDVEPALQFTTGELHL
6.31 h
5. MGSGWHEWPLMIFTVFGQCVAGGFIVLALALLKGDLRAEAQQRVIACMFGLWVLMGIGFIASMLHLGSPMRAFNSLNRVGASALSNEIASGSIFFAVGGIGWLLAMLKKLSPALRTLWLIVTMVLGVIFVWMMVRVYNSIDTVPTWYSIWTPMGFFLTMFMGGPLLGYLLLSLAGVDGWAMRLLPAISVLALVVSGVVSVMQGAELATIHSSVQQAAALVPDYGALMSWRIVLLAVALCLWIAPQLKGYQPAVPLLSVSFILLLAGELIGRGVFYGLHMTVGMAVAS
5.22 h

Which total protein half-life in vivo value belongs to MVDQAQDTLRPNNRLSDMQATMEQTQAFENRVLERLNAGKTVRSFLITAVELLTEAVNLLVLQVFRKDDYAVKYAVEPLLDGDGPLGDLSVRLKLIYGLGVINRQEYEDAELLMALREELNHDGNEYAFTDDEILGPFGELHCVAALPPPPQFEPADSSLYAMQIQRYQQAVRSTMVLSLTELISKISLKKAFQK [P0AF10] ?
4.42 h

Another sequence to check: MDALSRLLMLNAPQGTIDKNCVLGSDWQLPHGAGELSVIRWHALTQGAAKLEMPTGEIFTLRPGNVVLLPQNSAHRLSHVDNESTCIVCGTLRLQHSARYFLTSLPETLFLAPVNHSVEYNWLREAIPFLQQESRSAMPGVDALCSQICATFFTLAVREWIAQVNTEKNILSLLLHPRLGAVIQQMLEMPGHAWTVESLASIAHMSRASFAQLFRDVSGTTPLAVLTKLRLQIAAQMFSRETLPVVVIAESVGYASESSFHKAFVREFGCTPGEYRERVRQLAP
5.12 h

Another sequence to check: MKMIEVVAAIIERDGKILLAQRPAQSDQAGLWEFAGGKVEPDESQRQALVRELREELGIEATVGEYVASHQREVSGRIIHLHAWHVPDFHGTLQAHEHQALVWCSPEEALQYPLAPADIPLLEAFMALRAARPAD
4.61 h

Another sequence to check: MTHFSQQDNFSVAARVLGALFYYAPESAEAAPLVAVLTSDGWETQWPLPEASLAPLVTAFQTQCEETHAQAWQRLFVGPWALPSPPWGSVWLDRESVLFGDSTLALRQWMREKGIQFEMKQNEPEDHFGSLLLMAAWLAENGRQTECEELLAWHLFPWSTRFLDVFIEKAEHPFYRALGELARLTLAQWQSQLLIPVAVKPLFR
5.45 h

Another sequence to check: MTIYFINWVADYELKMIQYLKKKYKIKNITTPKKYNWINKKISKIGMDNAWLGRLFIKHYLNDIKKDDIIIINDSVVNKGINKQILKNINCHKVLLLRNTVGEDFILDNANYFDIIYDFEHRFIGNEKIKAIEQFFPIGMDEIRNYSLSDKNNSQPICFFLGRDKGRLQIINELAERLTTLGCKLDFNVVKDKTSSTTSKYLIEKQISYEENIRRTLNANIIVDITKENQSGWTLRILEALFFNKKLITNNINVFGSEIYSESRFFIIGHDDWDKLEYFINSSVKPMDYDSLYKFSPDKMMSTIVSDFIDK
4.87 h

Another sequence to check: MKLTLKNLSMAIMMSTIVMGSSAMAADSNEKIVIAHRGASGYLPEHTLPAKAMAYAQGADYLEQDLVMTKDDNLVVLHDHYLDRVTDVADRFPDRARKDGRYYAIDFTLDEIKSLKFTEGFDIENGKKVQTYPGRFPMGKSDFRVHTFEEEIEFVQGLNHSTGKNIGIYPEIKAPWFHHQEGKDIAAKTLEVLKKYGYTGKDDKVYLQCFDADELKRIKNELEPKMGMELNLVQLIAYTDWNETQQKQPDGSWVNYNYDWMFKPGAMKQVAEYADGIGPDYHMLIEETSQPGNIKLTGMVQDAQQNKLVVHPYTVRSDKLPEYTPDVNQLYDALYNKAGVNGLFTDFPDKAVKFLNKE
6.48 h
